- TARGET_DESC: human P2X3 receptor (Homo sapiens (Human))
- Sequence (P56373 whole entry): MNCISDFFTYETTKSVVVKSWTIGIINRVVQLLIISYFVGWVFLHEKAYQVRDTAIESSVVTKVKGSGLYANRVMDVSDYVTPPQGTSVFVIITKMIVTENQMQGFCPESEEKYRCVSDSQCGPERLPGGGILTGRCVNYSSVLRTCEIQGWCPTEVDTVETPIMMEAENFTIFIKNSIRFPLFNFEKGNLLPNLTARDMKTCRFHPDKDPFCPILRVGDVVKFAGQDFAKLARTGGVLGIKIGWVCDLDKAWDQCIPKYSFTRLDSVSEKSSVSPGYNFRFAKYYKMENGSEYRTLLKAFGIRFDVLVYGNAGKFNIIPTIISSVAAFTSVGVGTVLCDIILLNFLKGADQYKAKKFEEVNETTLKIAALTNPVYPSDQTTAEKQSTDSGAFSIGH
- ASSAY_NOTES: Evaluation of human P2X3 receptor inhibitory activity (Fluo-3 calcium fluorescence, FDSS 3000, ATP stimulation);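 also: stimulus was 50 nM ATP with fluorescence followed for 3 min, and the response per well was peak post-ATP fluorescence divided by the reading at measurement start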
- Assay type: cell-based
- ASSAY_SETUP: C6BU-1 cells stably expressing human P2X3 receptor
pIC50: −log10 of the molar value.
Below, each entry is listed alongside its reported pIC50.

>  <CPD_SMILES>
CCn1c(=O)[nH]/c(=N\c2ccc(Oc3cccc(C(=O)O)c3)cc2)n(Cc2ccc(C)cc2)c1=O

>  <pIC50>
8.05

$$$$
>  <CPD_SMILES>
Cc1ccc(Cn2c(=O)n([C@@H](C)[C@@H](C)C(=O)O)c(=O)[nH]/c2=N\c2ccc(OC3CCC3)c(C)c2)cc1

>  <pIC50>
7.80

$$$$
>  <CPD_SMILES>
CCOC(=O)c1cc(Oc2ccc(/N=c3\[nH]c(=O)n(CC)c(=O)n3Cc3ccc(Cl)cc3)cc2)[nH]n1

>  <pIC50>
8.10

$$$$
